# measurement-target: 5-HT2A (Homo sapiens)
# test-protocol: cell-based
# Design: expressed in transfected cells; host or cells: HEK293T, transient
# run-conditions: read-out: 5-HT2A β-arrestin Emax (% 5-HT), BRET, mean ± SEM
# Method: After at least 18-24 hours, transfected cells were plated in poly-lysine coated 96-well white clear bottom cell culture plates in DMEM containing 1% dialyzed FBS at a density of 25-40,000 cells in 200 μL per well and incubated overnight. […] Fifteen minutes before reading, 10 μL of the RLuc substrate, either coelenterazine h for β-Arrestin recruitment BRET^1 or coelenterazine 400a for Gq dissociation BRET^2 (Prolume/Nanolight, 5 μM final concentration) was addedper well. […]
observation-type: Emax (%)
Give just the number in %; leave the unit off.

Known results for compounds:
{"columns": ["compound", "unit-tag", "Emax"],
 "data": [
  ["COc1cc(CCNC2CCc3ccccc32)c(OC)cc1C (stereo not drawn)", "%", 112],
  ["COc1cc([N+](=O)[O-])c(OC)cc1CCNCc1cccc(C)c1 [25N-NB-3-Me (22)]", "%", 94.7],
  ["COc1cc(OC)c(OC)cc1CCNCc1ccc(F)c2ccccc12", "%", 73.6],
  ["COc1cc(OC)c(OC)cc1CCNCc1cccc(I)c1F", "%", 63.5],
  ["COc1cc(OC)c(OC)cc1CCNCc1ccccc1-c1ccco1", "%", 112],
  ["COc1cc2c(cc1CCNCc1cccc3ccccc13)OCO2", "%", 80.1]
]}

Request: Notebook: pull reported Emax for 5-HT2A (Homo sapiens), entry COc1cc(Cl)ccc1CC(C)NCc1cccc(C)c1O (stereo not drawn)
Result: 72.9

Request: Notebook: pull reported Emax for 5-HT2A (Homo sapiens), entry COc1cc(OC)c(OC)cc1CCNCc1ccc(-c2ccccc2)o1
Result: 50.3

* * *

Let's look at some compounds and their measured Emax.
# measurement-target: 5-HT2A (Homo sapiens, UniProt P28223)
# Sequence (P28223 whole entry): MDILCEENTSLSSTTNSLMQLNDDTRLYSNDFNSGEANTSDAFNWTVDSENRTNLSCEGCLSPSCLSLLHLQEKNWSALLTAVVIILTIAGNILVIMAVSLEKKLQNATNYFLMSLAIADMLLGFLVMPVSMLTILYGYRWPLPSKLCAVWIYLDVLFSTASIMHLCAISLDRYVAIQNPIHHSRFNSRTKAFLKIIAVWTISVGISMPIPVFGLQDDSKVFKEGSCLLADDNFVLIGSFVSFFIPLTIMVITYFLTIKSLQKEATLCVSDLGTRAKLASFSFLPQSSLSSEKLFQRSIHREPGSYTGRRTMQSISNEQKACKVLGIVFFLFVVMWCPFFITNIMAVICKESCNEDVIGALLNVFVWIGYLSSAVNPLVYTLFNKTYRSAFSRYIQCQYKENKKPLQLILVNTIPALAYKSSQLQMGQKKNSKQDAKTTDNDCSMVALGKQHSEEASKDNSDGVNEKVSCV
# test-protocol: cell-based
# Set-up: expressed in transfected cells; host or cells: HEK293T, transient
# run-conditions: read-out: 5-HT2A β-arrestin Emax (% 5-HT), BRET, mean ± SEM
Reply with the number and its unit after it.

{"columns": ["compound", "Emax"],
 "data": [
  ["COc1cc(CCNCc2cccc3ccccc23)cc(OC)c1Br", "50.8%"]
]}

Request: Item under review: COc1cc(CCNCc2ccccc2OC)c(OC)cc1I [Compound 25I-NBOMe, reference compound] . Reported Emax?
Result: 137%

Request: Item under review: COc1cc(CCNCc2ccccc2OC)c(OC)cc1C [25D-NBOMe (26)] . Reported Emax?
Result: 126%

Request: Item under review: COc1cc(OC)c(OC)cc1CCNCc1cccc2ncccc12 . Reported Emax?
Result: 92%
